Test: Biodistribution in intestinal content of C57BL/6 mouse bearing mouse B16-F0 cells at 0.74 to 0.92 MBq, iv after 1 hr
Type: ADME, organism-based
Details: in vivo
Drug uptake below 50 % ID/g gives False; Drug uptake at or above it gives True.

>>> class_assignment("CCN(CC)CCNC(=O)c1ccc2cc([125I])ccc2c1.Cl")
"False"
>>> class_assignment("CCN(CC)CCNC(=O)c1cc2cc([125I])ccc2[nH]1.Cl")
"True"
>>> class_assignment("CCN(CC)CCNC(=O)c1cc2cc([125I])ccc2o1.Cl")
"True"
>>> class_assignment("CCN(CC)CCNC(=O)c1ccc([125I])nc1.Cl.Cl")
"False"
>>> class_assignment("CCN(CC)CCNC(=O)c1c[nH]c2ccc([125I])cc2c1=O.Cl.Cl")
"True"
>>> class_assignment("CCN(CC)CCNC(=O)c1ccc2cc([125I])ccc2n1.Cl.Cl")
"False"
